# tested_system: C481S Btk (Homo sapiens, UniProt Q06187, C481S)
# Sequence (Q06187 whole entry C481S): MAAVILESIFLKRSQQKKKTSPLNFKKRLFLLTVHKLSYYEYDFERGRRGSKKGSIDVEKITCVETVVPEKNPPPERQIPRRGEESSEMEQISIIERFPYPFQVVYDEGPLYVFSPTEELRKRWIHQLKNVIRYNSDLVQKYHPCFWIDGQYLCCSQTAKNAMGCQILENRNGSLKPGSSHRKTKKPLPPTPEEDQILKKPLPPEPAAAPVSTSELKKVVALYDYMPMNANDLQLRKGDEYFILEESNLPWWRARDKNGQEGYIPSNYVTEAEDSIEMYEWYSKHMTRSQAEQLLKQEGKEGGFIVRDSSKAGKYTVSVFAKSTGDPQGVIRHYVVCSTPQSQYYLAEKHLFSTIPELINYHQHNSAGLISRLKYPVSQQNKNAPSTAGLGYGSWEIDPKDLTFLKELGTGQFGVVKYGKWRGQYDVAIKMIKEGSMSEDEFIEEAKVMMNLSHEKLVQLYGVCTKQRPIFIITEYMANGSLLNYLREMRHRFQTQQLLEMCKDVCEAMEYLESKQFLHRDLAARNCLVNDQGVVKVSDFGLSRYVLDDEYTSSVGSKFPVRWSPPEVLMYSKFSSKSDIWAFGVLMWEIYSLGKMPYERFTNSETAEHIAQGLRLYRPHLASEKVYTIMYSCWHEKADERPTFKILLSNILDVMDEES
# experiment_description: Caliper-based kinase assay, C481S BTK
# Format: biochemical
# condition_summary: 0.5 nM enzyme, ATP 16 μM, room temperature 3 h; read-out: C481S BTK IC50 (nM) (reversible inhibition)
reported_metric: IC50 (nM)

Some compounds with known IC50 results, for comparison:
# compound, unit_spec, IC50
data = [
    ("C=CC(=O)Nc1cc(Nc2nc(-c3ccnc(N4CCCn5c(cc6c5CC(C)(C)C6)C4=O)c3CO)cn(C)c2=O)ccc1N1CCN(C2COC2)C[C@@H]1C", "nM", 0.32),
    ("C=CC(=O)Nc1cc(Nc2nc(-c3ccnc(N4CCn5c(cc6c5CC(C)(C)C6)C4=O)c3C)cn(C)c2=O)ccc1N1CCN(C2COC2)C[C@@H]1C", "nM", 15.9),
    ("C=CC(=O)Nc1cc(Nc2nc(-c3ccnc(N4CCn5c(cc6c5CC(C)(C)C6)C4=O)c3CO)cn(C)c2=O)ccc1N1CCN(C2CCC(F)(F)CC2)C[C@@H]1C", "nM", 0.49),
    ("C=CC(=O)Nc1cc(Nc2nc(-c3ccnc(N4CCn5c(cc6c5CC(C)(C)C6)C4=O)c3CO)cn(C)c2=O)ccc1C1C(=O)N(C)CCN1C1COC1 (centres unmarked)", "nM", 0.61),
]

I = C=CC(=O)Nc1cc(Nc2nc(-c3ccnc(N4CCn5c(cc6c5CC(C)(C)C6)C4=O)c3CO)cn(C)c2=O)ccc1C1CN(C2COC2)CC(=O)N1C (centres unmarked)
II = C=CC(=O)Nc1cc(Nc2nc(-c3ccnc(N4CCn5c(cc6c5CC(C)(C)C6)C4=O)c3C)cn(C)c2=O)ccc1N1CCC(N2CCOCC2)CC1C (centres unmarked)
III = C=CC(=O)Nc1cc(Nc2nc(-c3ccnc(N4CCn5c(cc6c5CC(C)(C)C6)C4=O)c3CO)cn(C)c2=O)ccc1C1CN(C)C(=O)CN1C1COC1 (centres unmarked)
input: Rank entries according to their IC50, from the largest number down. Rank them, then answer with their labels in that order.
output: II, III, I
(II: 7.1 nM, III: 0.5 nM, I: 0.3 nM)
